Experiment: Selectivity index, ratio of LC50 for mouse 3T3 cells to MIC for Mycobacterium tuberculosis H37Rv ATCC27294
Format: toxicity
Details: read-out: Selectivity Index
Strictly below 0.3 in selectivity ratio: condition met. Otherwise: condition not met.

Some solved cases for reference:
- COc1ccc(C(=O)/C=C/c2ccc(Cl)cc2)cc1S(N)(=O)=O: condition met
- COc1ccc(C(=O)/C=C/c2ccc(Cl)cc2)cc1S(=O)(=O)Nc1c(N)nc(SC)[nH]c1=O: condition not met

Lab note: selectivity ratio threshold 0.3. Does this compound come in strictly under it? COc1ccc(C(=O)/C=C/c2ccccc2)cc1S(N)(=O)=O
condition not met

A record lists COc1ccc(C(=O)/C=C/c2ccc(C)cc2)cc1S(N)(=O)=O . Is its selectivity ratio below 0.3?
condition met

A record lists COc1ccc(C(=O)/C=C/c2ccccc2)cc1S(=O)(=O)Nc1c(N)nc(SC)[nH]c1=O . Is its selectivity ratio below 0.3?
condition not met

Lab note: confirm whether the reported selectivity ratio for this compound is below 0.3, equality not counting. compound: COc1ccc(C(=O)/C=C/c2ccc(C)cc2)cc1S(=O)(=O)Nc1c(N)nc(SC)[nH]c1=O
condition met

###

Test system: Mycobacterium tuberculosis
Assay: Antitubercular activity against Mycobacterium tuberculosis H37Rv ATCC27294 measured after 2-3 weeks by agar dilution SPOTi assay
Format: functional
Settings: H37Rv ATCC 27294
OBSERVATION TYPE: MIC

Use the examples below as a reference point.
• COc1ccc(/C=C/C(=O)c2ccc(OC)c(S(N)(=O)=O)c2)cc1 = > 144 µM
• COc1ccc(C(=O)/C=C/c2ccc3c(c2)OCO3)cc1S(=O)(=O)Nc1c(N)nc(SC)[nH]c1=O = > 97 µM
• COc1ccc(/C=C/C(=O)c2ccc(OC)c(S(=O)(=O)Nc3c(N)nc(SC)[nH]c3=O)c2)cc1 = > 100 µM
• COc1ccc(C(=O)/C=C/c2cc(OC)c(OC)c(OC)c2)cc1S(=O)(=O)Nc1c(N)nc(SC)[nH]c1=O = > 89 µM
• COc1ccc(C(C)=O)cc1S(N)(=O)=O = > 218 µM

Record COc1ccc(C(=O)/C=C/c2cc(OC)c(OC)c(OC)c2)cc1S(N)(=O)=O : what is its MIC with Mycobacterium tuberculosis?
> 123 µM

Param readout= MIC; system= Mycobacterium tuberculosis; entry= COc1ccc(C(=O)/C=C/c2ccc3c(c2)OCO3)cc1S(N)(=O)=O ; returns value.
> 138 µM

Could you share what MIC was measured for COc1ccc(C(C)=O)cc1S(=O)(=O)Nc1c(N)nc(SC)[nH]c1=O , tested on Mycobacterium tuberculosis?
> 130 µM
